Source: ChEMBL document CHEMBL3992515

# measurement-protocol: Cytotoxicity against human HG23 cells after 48 hrs by crystal violet staining-based assay
# Type: cell-based
# experimental-setup: hg23, 48 h, 48 h, read-out: TC50 (the source's name)
observable: CC50 (µM)
Answer with a number only, understood to be in µM.

compound	unit-of-measure	value-observed
O=C[C@@H]1CCC(=O)NCCCCCC(c2cccc(Cl)c2)OC(=O)N[C@@H](CC2CCCCC2)C(=O)N1 (stereo in doubt; form 2)	µM	45.3

Let's switch to this compound now.
Sure, the documented CC50 for CC(C)C[C@@H]1NC(=O)OC(c2cccc(Cl)c2)CCCCCONC(=O)CC[C@@H](C=O)NC1=O (stereo in doubt; 36B) is 73.8
